Listed below: relative viability values for each entry.
- Test system: HCC-15
- PROTOCOL DESCRIPTION: relative viability (nuclei count vs DMSO), 5 days (fraction); higher = more cells survive
- STATED CONDITIONS: first compound 0.04 µM
MEASURED PARAMETER: relative viability

- C[C@@H]1CN(CC(=O)Nc2ccc3c(c2)Cc2cccc(-c4cc(=O)cc(N5CCOCC5)o4)c2S3)C[C@H](C)O1 + CC1(C)CCC(c2ccc(Cl)cc2)=C(CN2CCN(c3ccc(C(=O)NS(=O)(=O)c4ccc(N[C@H](CCN5CCOCC5)CSc5ccccc5)c(S(=O)(=O)C(F)(F)F)c4)cc3)CC2)C1 [Navitoclax] (partner 0.5 µM): 0.7
- COc1cc(N2CCC(C(N)=O)CC2)ccc1Nc1nc(N)c(Cl)c(Nc2ccccc2S(=O)(=O)C(C)C)n1 [HG-5-88-01] + Nc1ncn([C@H]2C[C@H](O)[C@@H](CO)O2)c(=O)n1 [Decitabine] (partner 2 µM): 0.682
- Clc1ccc(Nc2nnc(Cc3ccncc3)c3ccccc23)cc1 [Vatalanib] + CC(=O)Nc1cccc(-n2c(=O)n(C3CC3)c(=O)c3c(Nc4ccc(I)cc4F)n(C)c(=O)c(C)c32)c1 [Trametinib] (partner 0.02 µM): 0.392
- C[C@@H]1CN(CC(=O)Nc2ccc3c(c2)Cc2cccc(-c4cc(=O)cc(N5CCOCC5)o4)c2S3)C[C@H](C)O1 + Cc1nc(NC(=O)N2CCC[C@H]2C(N)=O)sc1-c1ccnc(C(C)(C)C(F)(F)F)c1 [Alpelisib] (partner 2 µM): 0.976

###

Listed below: relative viability values for each entry.
- Tested on: NCI-H1944
- PROTOCOL DESCRIPTION: relative viability (nuclei count vs DMSO), 5 days (fraction); higher = more cells survive
- STATED CONDITIONS: first compound 0.4 µM
MEASURED PARAMETER: relative viability

* COc1cc(N2CCC(C(N)=O)CC2)ccc1Nc1nc(N)c(Cl)c(Nc2ccccc2S(=O)(=O)C(C)C)n1 [HG-5-88-01] + CC(=O)Nc1cccc(-n2c(=O)n(C3CC3)c(=O)c3c(Nc4ccc(I)cc4F)n(C)c(=O)c(C)c32)c1 [Trametinib] (partner 0.02 µM) | 0.396
* Clc1ccc(Nc2nnc(Cc3ccncc3)c3ccccc23)cc1 [Vatalanib] + Nc1nc2[nH]cc(CCc3ccc(C(=O)N[C@@H](CCC(=O)O)C(=O)O)cc3)c2c(=O)[nH]1 [Pemetrexed] (partner 0.2 µM) | 0.63
* COc1cc(N2CCC(C(N)=O)CC2)ccc1Nc1nc(N)c(Cl)c(Nc2ccccc2S(=O)(=O)C(C)C)n1 [HG-5-88-01] + Nc1ncn([C@H]2C[C@H](O)[C@@H](CO)O2)c(=O)n1 [Decitabine] (partner 2 µM) | 0.554
* COc1cc(N2CCC(C(N)=O)CC2)ccc1Nc1nc(N)c(Cl)c(Nc2ccccc2S(=O)(=O)C(C)C)n1 [HG-5-88-01] + CCNC(=O)c1noc(-c2cc(C(C)C)c(O)cc2O)c1-c1ccc(CN2CCOCC2)cc1 [Luminespib] (partner 0.01 µM) | 0.759
* COc1cc(N2CCC(C(N)=O)CC2)ccc1Nc1nc(N)c(Cl)c(Nc2ccccc2S(=O)(=O)C(C)C)n1 [HG-5-88-01] + CS(=O)(=O)N1CCN(Cc2cc3nc(-c4cccc5[nH]ncc45)nc(N4CCOCC4)c3s2)CC1 [Pictilisib] (partner 1 µM) | 0.336
